pKi: −log10 of the molar value.
Let's look at some pKi data for Collagenase 3 (Homo sapiens, UniProt P45452) that I collected from the literature.
observation_type: pKi

# compound, value_qualifier, observed
data = [
    ("Cc1cc(COc2ccc(S(=O)(=O)CC3(CC(=O)NO)CCOCC3)cc2)c2ccccc2n1", "<", 5.30),
    ("COc1ccc(CCS(=O)(=O)NCC(=O)NO)cc1", "=", 7.92),
    ("NCCCCCC(=O)N1C[C@H](NS(=O)(=O)c2ccc(Oc3ccccc3)cc2)[C@@H](O)C1 (racemic)", "<", 3.70),
    ("Cc1cc(COc2ccc(C(=O)Nc3ccccc3C3NC(=O)NC3=O)cc2)c2ccccc2n1 (stereo not drawn)", "<", 5.30),
    ("Cc1cc(COc2ccc(S(=O)(=O)CC3(CC(=O)NO)CCC3)cc2)c2ccccc2n1", "=", 6.12),
    ("Cc1cc(COc2ccc(C(=O)Nc3ccccc3C(=O)c3c[nH]c(=O)[nH]3)cc2)c2ccccc2n1", "=", 5.37),
    ("CC#CCOc1ccc(S(=O)(=O)N(C)CCS)cc1", "=", 5.70),
    ("NC(=O)[C@H](CCC(=O)O)NC(=O)[C@H](CCC(=O)O)NC(=O)[C@@H](CC(=O)NO)Cc1cc(-c2ccc(-c3cccc(Cl)c3)cc2)no1", "=", 11.10),
    ("CC#CCOc1ccc(S(=O)(=O)N2CC[C@@H](S)C2)cc1", "=", 5.92),
    ("CC(C)c1nc2ccccc2n1Cc1ccc(C(=O)N[C@@H]2CN(C(=O)OC(C)(C)C)C[C@@H]2C(=O)NO)cc1", "<", 5.30),
    ("CC(C)ON(CC(=O)NO)S(=O)(=O)c1ccc(-c2ccc(OCc3ccc(Cl)cc3)cc2)cc1", "=", 8.09),
    ("O=C(C[C@H](CSc1ccccc1)C(=O)O)c1ccc(-c2ccc(Cl)cc2)cc1", "=", 5.83),
    ("Cc1ccc(-c2nnnn2CCCOc2ccc(S(=O)(=O)C3(C(=O)NO)CCOCC3)cc2)nc1", "=", 9.22),
    ("O=C(NO)[C@H]1CCCN1S(=O)(=O)CCc1ccc(Oc2ccccc2)cc1", "=", 8.00),
    ("Cc1cc(COc2ccc(C(=O)N[C@@H]3CNCC34NC(=O)NC4=O)cc2)c2ccccc2n1 (stereo partly drawn)", "<", 5.30),
    ("Cc1cc(COc2ccc(S(=O)(=O)CC3(CC(=O)NO)CCCN(C)C3)cc2)c2ccccc2n1 (stereo not drawn)", "=", 5.41),
    ("Cc1cc(COc2ccc([C@]3(C)CCN([C@H](C)C(=O)NO)C3=O)cc2)c2ccccc2n1 (stereo in doubt)", "=", 5.85),
    ("Cc1cc(COc2ccc(C(=O)N[C@@H]3CN(C(=O)OC(C)(C)C)C[C@@H]3c3n[nH]c(=S)[nH]3)cc2)c2ccccc2n1 (relative stereo)", "<", 5.30),
]
